Molecular target: MAP kinase-activated protein kinase 5 (Homo sapiens) (UniProt Q8IW41);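 note: reported values are mean PRAK inhibition figures from the GSK PKIS screen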
Sequence (Q8IW41 whole entry): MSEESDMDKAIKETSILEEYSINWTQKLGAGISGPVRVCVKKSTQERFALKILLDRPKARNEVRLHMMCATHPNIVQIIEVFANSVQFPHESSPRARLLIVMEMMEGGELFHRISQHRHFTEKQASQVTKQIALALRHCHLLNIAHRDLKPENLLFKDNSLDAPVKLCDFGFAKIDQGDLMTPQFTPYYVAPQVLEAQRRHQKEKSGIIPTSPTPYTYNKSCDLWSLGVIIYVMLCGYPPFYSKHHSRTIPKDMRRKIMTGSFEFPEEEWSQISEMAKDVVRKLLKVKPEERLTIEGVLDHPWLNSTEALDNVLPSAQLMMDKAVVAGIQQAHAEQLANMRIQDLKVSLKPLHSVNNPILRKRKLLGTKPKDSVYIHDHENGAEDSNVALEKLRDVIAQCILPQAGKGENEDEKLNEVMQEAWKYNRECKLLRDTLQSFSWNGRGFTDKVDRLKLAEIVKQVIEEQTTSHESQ
Details: at 0.1 µM
For each record, write down the corresponding inhibition.
Write down the numeric answer in % and omit the unit.

inhibition in this record for NS(=O)(=O)c1ccc(N/N=C2\C(=O)Nc3cccc(CCc4ccncc4)c32)cc1 : 0.36

inhibition in this record for O=C(Nc1n[nH]c2nnc(-c3cccnc3)cc12)C1CC1 : 0.13

inhibition in this record for CS(=O)(=O)CCNCc1ccoc1-c1ccc2ncnc(Nc3ccc(OCc4ccccc4)cc3)c2c1 : 0.44

inhibition in this record for Cc1ccc(-c2cc3c(NC(=O)C4CC4)ncnc3o2)cc1 : 0.83

inhibition in this record for OCCCNc1nccc(-c2c(-c3ccc(F)cc3)nn3cc(C(F)(F)F)ccc23)n1 : -0.21

inhibition in this record for NS(=O)(=O)c1cccc(N/C=C2\C(=O)Nc3ccccc32)c1 : 1.17

inhibition in this record for COc1cccc(-n2ncc3c(N/N=C/c4ccc(C(=O)NCCN(C)C)cc4)ncnc32)c1 : 0.76

inhibition in this record for CCS(=O)(=O)c1ccc(OC)c(Nc2ncc(-c3cccc(F)c3)o2)c1 : 2.11

inhibition in this record for FC(F)(F)CNc1nccc(-c2cnn3ncccc23)n1 : 1.14

inhibition in this record for Cc1c2ccc(N(C)c3ccnc(Nc4cccc(S(N)(=O)=O)c4)n3)cc2nn1C : 1.9

---

Target: Serine/threonine-protein kinase SIK1 (Homo sapiens);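 note: mean inhibition value from the GSK PKIS profiling set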
Conditions: at 1 µM
measuredProperty: inhibition (%)
Write down the numeric answer in % and omit the unit.

inhibition in this record for COc1cc(Nc2ncc(-c3ccccc3)o2)cc(OC)c1 : 20.6

inhibition in this record for O=C1Nc2ccccc2/C1=C1\CCc2cc(O)ccc21 : 18.1

inhibition in this record for COc1ccc(-c2nn3ncccc3c2-c2ccnc(Nc3ccc(F)c(F)c3)n2)cc1 : 8.64

inhibition in this record for Fc1cccc(COc2ccc(Nc3ncncc3C#Cc3ccccc3)cc2Cl)c1 : 5.31

inhibition in this record for Cc1nnc(-c2cccc(-c3ccc(C(=O)NCC4CC4)cc3)c2)o1 : 10.7

inhibition in this record for COc1ccc2ncn(-c3cc(O[C@H](C)c4ccccc4C(F)(F)F)c(C(N)=O)s3)c2c1 : 15.9

inhibition in this record for c1cnn2ncc(-c3ccnc(NCCCN4CCOCC4)n3)c2c1 : 6.56

inhibition in this record for CS(=O)(=O)CCNCc1ccoc1-c1ccc2ncnc(Nc3ccc(OCc4ccccc4)cc3)c2c1 : 4.48

inhibition in this record for Fc1ccc(Nc2nccc(-c3c(-c4ccc(C(F)(F)F)cc4)nn4ncccc34)n2)cc1F : 3.1

inhibition in this record for CN1CCC(n2cnc(-c3ccc(F)cc3)c2-c2ccnc(NCCO)n2)CC1 : 6.87

---

Molecular target: RAC-gamma serine/threonine-protein kinase (Homo sapiens) (UniProt Q9Y243)
Sequence (Q9Y243 whole entry): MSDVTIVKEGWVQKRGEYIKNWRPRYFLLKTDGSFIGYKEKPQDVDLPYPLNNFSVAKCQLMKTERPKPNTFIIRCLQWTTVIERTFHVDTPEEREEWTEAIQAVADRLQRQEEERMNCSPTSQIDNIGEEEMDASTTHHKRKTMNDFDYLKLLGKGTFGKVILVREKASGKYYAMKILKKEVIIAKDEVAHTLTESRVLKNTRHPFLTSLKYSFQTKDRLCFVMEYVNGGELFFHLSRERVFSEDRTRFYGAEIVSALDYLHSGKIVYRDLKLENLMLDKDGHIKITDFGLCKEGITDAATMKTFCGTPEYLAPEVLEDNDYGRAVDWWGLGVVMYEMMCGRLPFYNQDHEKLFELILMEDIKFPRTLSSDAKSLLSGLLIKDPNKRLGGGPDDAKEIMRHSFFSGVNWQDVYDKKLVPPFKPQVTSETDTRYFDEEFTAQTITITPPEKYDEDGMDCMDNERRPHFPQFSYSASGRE
Details: at 0.1 µM
Description: GSK_PKIS: AKT3 mean inhibition at 0.1 uM [Nanosyn]
measuredProperty: inhibition (%)
Write down the numeric answer in % and omit the unit.

inhibition in this record for COc1ccc(-c2nn3ncccc3c2-c2ccnc(Nc3ccc(F)c(F)c3)n2)cc1 : 1.4

inhibition in this record for COc1cc2c(cc1Nc1nc(Nc3cccc(F)c3C(N)=O)c3cc[nH]c3n1)N(C(=O)CN1CCN(C(C)C)CC1)CC2 : 1.35

inhibition in this record for NS(=O)(=O)c1ccc(N/N=C2\C(=O)Nc3ccc(C(=O)NCc4ccncc4)cc32)cc1 : 1.54

inhibition in this record for CS(=O)(=O)CCNCc1ccoc1-c1ccc2ncnc(Nc3ccc(OCc4ccccc4)cc3)c2c1 : -0.09

inhibition in this record for O=C(O[C@H]1CN[C@H](C#Cc2cc3ncnc(Nc4ccc(OCc5cccc(F)c5)c(Cl)c4)c3s2)C1)N1CCOCC1 : 1.68

inhibition in this record for O=C(O[C@H]1CN[C@H](C#Cc2cc3ncnc(Nc4ccc5c(ccn5Cc5cc(F)ccc5F)c4)c3s2)C1)N1CCOCC1 : 0.84

inhibition in this record for COc1ccc2ncn(-c3cc(O[C@H](C)c4ccccc4C(F)(F)F)c(C(N)=O)s3)c2c1 : 0.16

inhibition in this record for CC1(C)CC(n2cnc(-c3ccc(F)cc3)c2-c2ccnc(N)n2)CC(C)(C)N1 : 0.06

---

Test system: Serine/threonine-protein kinase B-raf (Homo sapiens), P15056 [V600E];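 note: enzyme inhibition of the BRAF V599E mutant kinase, given as mean percent inhibition, screened within the GSK PKIS kinase inhibitor set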
Sequence (P15056 whole entry V600E): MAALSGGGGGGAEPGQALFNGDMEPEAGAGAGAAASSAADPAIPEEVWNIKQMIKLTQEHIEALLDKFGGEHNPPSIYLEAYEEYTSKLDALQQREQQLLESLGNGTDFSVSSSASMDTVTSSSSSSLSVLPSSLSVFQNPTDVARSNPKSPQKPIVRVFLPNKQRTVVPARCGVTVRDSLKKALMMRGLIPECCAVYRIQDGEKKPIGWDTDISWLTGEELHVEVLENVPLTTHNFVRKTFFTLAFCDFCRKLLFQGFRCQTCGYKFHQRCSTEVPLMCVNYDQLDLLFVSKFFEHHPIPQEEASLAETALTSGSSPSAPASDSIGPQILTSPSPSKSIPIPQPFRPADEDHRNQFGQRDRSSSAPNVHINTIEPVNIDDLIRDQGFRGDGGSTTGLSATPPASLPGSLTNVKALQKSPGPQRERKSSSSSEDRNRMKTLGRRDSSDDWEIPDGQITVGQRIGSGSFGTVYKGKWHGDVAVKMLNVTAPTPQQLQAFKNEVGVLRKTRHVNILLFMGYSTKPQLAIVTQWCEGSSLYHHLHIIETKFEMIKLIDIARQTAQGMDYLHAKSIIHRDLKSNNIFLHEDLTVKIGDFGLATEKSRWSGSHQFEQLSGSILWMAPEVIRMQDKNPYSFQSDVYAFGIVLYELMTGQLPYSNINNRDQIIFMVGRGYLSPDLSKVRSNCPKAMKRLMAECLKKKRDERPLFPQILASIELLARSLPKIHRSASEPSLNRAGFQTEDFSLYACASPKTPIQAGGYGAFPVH
Settings: at 1 µM
Description: GSK_PKIS: BRAF (V599E mutant) mean inhibition at 1 uM [Nanosyn]
For each record, write down the corresponding inhibition.
Write down the numeric answer in % and omit the unit.

Entry O=C(O[C@H]1CN[C@H](C#Cc2cc3ncnc(Nc4ccc5c(cnn5Cc5ccccc5)c4)c3s2)C1)N1CCOCC1 under Serine/threonine-protein kinase B-raf (Homo sapiens), P15056 [V600E] had inhibition of -0.28

Entry O=C1Nc2ccccc2/C1=C1\CCc2cc(O)ccc21 under Serine/threonine-protein kinase B-raf (Homo sapiens), P15056 [V600E] had inhibition of 8.96

Entry N#Cc1cccc(Nc2ncc(-c3ccccc3)o2)c1 under Serine/threonine-protein kinase B-raf (Homo sapiens), P15056 [V600E] had inhibition of 4.57

Entry CCS(=O)(=O)c1ccc(OC)c(Nc2ncc(-c3cccc(F)c3)o2)c1 under Serine/threonine-protein kinase B-raf (Homo sapiens), P15056 [V600E] had inhibition of 4.95

Entry Cc1ccc(-c2cc3c(NC(=O)C4CC4)ncnc3o2)cc1 under Serine/threonine-protein kinase B-raf (Homo sapiens), P15056 [V600E] had inhibition of 4.89

Entry Cn1c(-c2nonc2N)nc2cnccc21 under Serine/threonine-protein kinase B-raf (Homo sapiens), P15056 [V600E] had inhibition of 3.98

Entry OCCCNc1nccc(-c2c(-c3ccc(F)cc3)nn3cc(C(F)(F)F)ccc23)n1 under Serine/threonine-protein kinase B-raf (Homo sapiens), P15056 [V600E] had inhibition of 9.93

Entry COc1cc(N2CCN(C(C)C)CC2)ccc1Nc1nc(Nc2cccc3ncccc23)c2cc[nH]c2n1 under Serine/threonine-protein kinase B-raf (Homo sapiens), P15056 [V600E] had inhibition of 1.11

Entry CCOc1ccc2c(-c3ccnc(Nc4cc(OC)cc(C(F)(F)F)c4)n3)cnn2n1 under Serine/threonine-protein kinase B-raf (Homo sapiens), P15056 [V600E] had inhibition of 1.03

Entry COc1ccc(Nc2ncc(-c3ccccc3)o2)cc1OC under Serine/threonine-protein kinase B-raf (Homo sapiens), P15056 [V600E] had inhibition of 2.34

Entry CC1=C(C(=O)Nc2ccc3[nH]nc(C)c3c2)C(c2ccc(C(F)(F)F)cc2)CC(=O)N1 (configuration not stated) under Serine/threonine-protein kinase B-raf (Homo sapiens), P15056 [V600E] had inhibition of 37.9

Entry c1ccc(-c2n[nH]cc2-c2ccnc(-c3ccc(OCCn4ccnc4)cc3)c2)nc1 under Serine/threonine-protein kinase B-raf (Homo sapiens), P15056 [V600E] had inhibition of 1.34

---

For each record, write down the corresponding inhibition.
Molecular target: Tyrosine-protein kinase ABL2 (Homo sapiens) (UniProt P42684)
Sequence (P42684 whole entry): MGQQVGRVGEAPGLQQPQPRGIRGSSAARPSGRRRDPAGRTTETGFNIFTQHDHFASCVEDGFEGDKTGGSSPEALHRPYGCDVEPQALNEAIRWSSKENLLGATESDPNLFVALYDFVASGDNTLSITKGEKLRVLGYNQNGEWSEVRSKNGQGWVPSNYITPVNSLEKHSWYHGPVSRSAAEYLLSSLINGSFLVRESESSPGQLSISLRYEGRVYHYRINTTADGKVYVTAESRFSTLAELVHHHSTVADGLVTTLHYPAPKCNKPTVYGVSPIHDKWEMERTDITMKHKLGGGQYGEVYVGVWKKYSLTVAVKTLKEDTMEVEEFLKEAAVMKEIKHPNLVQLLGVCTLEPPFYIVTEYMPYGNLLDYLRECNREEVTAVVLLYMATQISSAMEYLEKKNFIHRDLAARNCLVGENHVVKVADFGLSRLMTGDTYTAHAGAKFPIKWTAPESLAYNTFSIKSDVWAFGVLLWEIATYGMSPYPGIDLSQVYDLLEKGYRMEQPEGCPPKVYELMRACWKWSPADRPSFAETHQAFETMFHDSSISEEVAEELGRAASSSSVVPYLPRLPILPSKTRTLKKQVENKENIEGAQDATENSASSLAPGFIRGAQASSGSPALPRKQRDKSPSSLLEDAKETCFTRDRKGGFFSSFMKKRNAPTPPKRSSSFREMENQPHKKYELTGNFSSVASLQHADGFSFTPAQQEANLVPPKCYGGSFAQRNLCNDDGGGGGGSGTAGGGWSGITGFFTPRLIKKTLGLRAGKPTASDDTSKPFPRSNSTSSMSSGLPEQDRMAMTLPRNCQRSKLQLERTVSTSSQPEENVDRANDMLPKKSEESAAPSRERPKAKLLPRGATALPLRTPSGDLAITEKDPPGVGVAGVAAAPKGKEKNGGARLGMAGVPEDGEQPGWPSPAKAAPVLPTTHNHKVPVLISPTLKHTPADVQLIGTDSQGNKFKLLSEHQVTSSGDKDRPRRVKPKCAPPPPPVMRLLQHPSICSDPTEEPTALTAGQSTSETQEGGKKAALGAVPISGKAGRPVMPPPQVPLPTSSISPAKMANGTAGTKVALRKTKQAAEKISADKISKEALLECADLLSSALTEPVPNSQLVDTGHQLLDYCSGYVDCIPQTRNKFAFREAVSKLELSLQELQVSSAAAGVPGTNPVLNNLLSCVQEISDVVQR
Settings: at 1 µM
Description: GSK_PKIS: ARG mean inhibition at 1 uM [Nanosyn]
Write down the numeric answer in % and omit the unit.

inhibition in this record for O=C(O[C@H]1CN[C@H](C#Cc2cc3ncnc(Nc4ccc5c(cnn5Cc5ccccc5)c4)c3s2)C1)N1CCOCC1 : 2.25

inhibition in this record for COc1cccc(Nc2nccc(-c3cnn4ncccc34)n2)c1 : 44.2

inhibition in this record for c1cnn2ncc(-c3ccnc(NCCCN4CCOCC4)n3)c2c1 : 1.19

inhibition in this record for COc1cc(N2CCN(C(C)C)CC2)ccc1Nc1nc(Nc2cccc(F)c2C(=O)O)c2cc[nH]c2n1 : 5.35

inhibition in this record for CS(=O)(=O)Nc1ccc(-c2cc(-c3ccccc3)cc(C(N)=O)c2N)cc1 : 7.11

---

Molecular target: Serine/threonine-protein kinase D1 (Homo sapiens) (UniProt Q15139);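 note: each value is an averaged percent inhibition of PRKD1 kinase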
Sequence (Q15139 whole entry): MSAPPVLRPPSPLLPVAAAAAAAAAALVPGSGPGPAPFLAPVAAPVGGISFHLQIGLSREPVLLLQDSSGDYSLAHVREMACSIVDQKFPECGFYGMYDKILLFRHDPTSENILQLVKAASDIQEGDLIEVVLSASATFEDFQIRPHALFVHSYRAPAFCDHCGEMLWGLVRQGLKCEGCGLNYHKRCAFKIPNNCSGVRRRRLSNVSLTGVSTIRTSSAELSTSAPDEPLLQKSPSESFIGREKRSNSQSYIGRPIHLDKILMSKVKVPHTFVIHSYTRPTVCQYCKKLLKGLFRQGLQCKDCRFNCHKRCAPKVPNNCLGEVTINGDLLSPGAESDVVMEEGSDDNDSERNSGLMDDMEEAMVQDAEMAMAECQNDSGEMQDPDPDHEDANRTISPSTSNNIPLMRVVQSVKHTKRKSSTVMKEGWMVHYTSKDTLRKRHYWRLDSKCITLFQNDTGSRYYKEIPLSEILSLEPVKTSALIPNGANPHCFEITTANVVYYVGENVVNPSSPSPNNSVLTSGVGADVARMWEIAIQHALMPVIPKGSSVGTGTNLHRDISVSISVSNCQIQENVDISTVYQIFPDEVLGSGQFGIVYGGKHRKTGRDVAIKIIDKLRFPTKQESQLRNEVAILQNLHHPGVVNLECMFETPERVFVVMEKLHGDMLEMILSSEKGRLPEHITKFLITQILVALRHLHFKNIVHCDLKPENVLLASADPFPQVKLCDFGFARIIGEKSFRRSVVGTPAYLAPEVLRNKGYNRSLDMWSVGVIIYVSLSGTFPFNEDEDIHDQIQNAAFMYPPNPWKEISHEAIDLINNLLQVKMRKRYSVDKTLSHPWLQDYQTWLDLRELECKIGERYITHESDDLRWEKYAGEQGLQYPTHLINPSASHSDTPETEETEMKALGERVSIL
Details: at 1 µM
Classes by inhibition: small value (below 4%), mid value (4% to below 7%), large value (7% or more)

Q: Please classify: CCn1c(-c2nonc2N)nc2cncc(C(=O)NCCNC)c21
Ans: large value

Q: Please classify: COc1cccc(Nc2nccc(-c3cnn4ncccc34)n2)c1
Ans: large value

Q: Please classify: O=C(O[C@H]1CN[C@H](C#Cc2cc3ncnc(Nc4ccc5c(ccn5Cc5cc(F)ccc5F)c4)c3s2)C1)N1CCOCC1
Ans: mid value

Q: Please classify: CC1=C(C(=O)Nc2ccc3[nH]ncc3c2)C(c2ccc(F)cc2)N=C(c2ccc(C(F)(F)F)nc2)N1 (centres undefined)
Ans: small value

Q: Please classify: CCS(=O)(=O)c1ccc(OC)c(Nc2ncc(-c3cccc(F)c3)o2)c1
Ans: mid value

Q: Please classify: CNC(=O)c1sc(-n2cnc3cc(OC)c(OC)cc32)cc1OCc1ccccc1C(F)(F)F
Ans: mid value

Q: Please classify: CC1=C(C(=O)Nc2ccc3[nH]nc(C)c3c2)C(c2ccc(C(F)(F)F)cc2)CC(=O)N1 (centres undefined)
Ans: large value

Q: Please classify: Cc1cc(O)cc(C)c1/C=C/c1cncc(C(=O)OC(C)(C)C)c1
Ans: small value

Q: Please classify: O=C(Nc1n[nH]c2nnc(-c3cccnc3)cc12)C1CC1
Ans: small value

Q: Please classify: COc1ccc(-c2nn3ncccc3c2-c2ccnc(Nc3ccc(F)c(F)c3)n2)cc1
Ans: mid value

Q: Please classify: Fc1ccc(Nc2nccc(-c3c(-c4ccc(C(F)(F)F)cc4)nn4ncccc34)n2)cc1F
Ans: mid value

Q: Please classify: CS(=O)(=O)CCNCc1ccc(-c2ccc3ncnc(Nc4ccc(OCc5cccc(C(F)(F)F)c5)cc4)c3c2)o1
Ans: mid value

Q: Please classify: CCCNc1cccc(-n2ncc3c(N/N=C/c4ccncc4)ncnc32)c1
Ans: small value

Q: Please classify: O=C1Nc2ccccc2/C1=C1\CCc2cc(O)ccc21
Ans: large value

Q: Please classify: Cc1cc(O)cc(C)c1/C=C/c1cncc(C(N)=O)c1
Ans: small value

Q: Please classify: Fc1cccc(COc2ccc(Nc3ncncc3C#Cc3ccccc3)cc2Cl)c1
Ans: large value

Q: Please classify: CC1(C)CC(n2cnc(-c3ccc(F)cc3)c2-c2ccnc(N)n2)CC(C)(C)N1
Ans: small value

Q: Please classify: Cc1c2ccc(N(C)c3ccnc(Nc4cccc(S(N)(=O)=O)c4)n3)cc2nn1C
Ans: small value

Q: Please classify: N#Cc1ccc2c(-c3ccnc(NC4CC4)n3)c(-c3ccc(F)cc3)nn2c1
Ans: large value

Q: Please classify: NC(=O)c1ccc2c(-c3ccnc(NCCCO)n3)c(-c3ccc(F)cc3)nn2c1
Ans: large value

Q: Please classify: c1ccc(-c2n[nH]cc2-c2ccnc(-c3ccc(OCCn4ccnc4)cc3)c2)nc1
Ans: large value

Q: Please classify: N#Cc1cccc(Nc2ncc(-c3ccccc3)o2)c1
Ans: small value

Q: Please classify: COc1c(C(N)=O)cc(-c2ccc(Cl)cc2)cc1-c1ccc(S(N)(=O)=O)cc1
Ans: mid value

Q: Please classify: COC(=O)Nc1nc2cc(Oc3ccc(NC(=O)Nc4ccccc4)cc3)ccc2[nH]1
Ans: small value

Q: Please classify: O=C(O[C@H]1CN[C@H](C#Cc2cc3ncnc(Nc4ccc5c(cnn5Cc5ccccc5)c4)c3s2)C1)N1CCOCC1
Ans: small value

Q: Please classify: FC(F)(F)CNc1nccc(-c2cnn3ncccc23)n1
Ans: mid value

Q: Please classify: CN(C)CCNC(=O)Nc1ccc(N(C)c2ccnc(Nc3ccc(CS(C)(=O)=O)cc3)n2)cc1
Ans: large value

Q: Please classify: COc1cc(N2CCN(C(C)C)CC2)ccc1Nc1nc(Nc2cccc(F)c2C(=O)O)c2cc[nH]c2n1
Ans: mid value
